targetOrSystem: T1, Human Galectin-3 protein (Acro Biosystems, GA3-H5129) (human, UniProt P17931 2-250)
T1 construct: Bought protein; also called Gal3-ECD-His; Gal3-His; not shown: linker-spaced 6-histidine tag
T1 sequence (P17931 2-250): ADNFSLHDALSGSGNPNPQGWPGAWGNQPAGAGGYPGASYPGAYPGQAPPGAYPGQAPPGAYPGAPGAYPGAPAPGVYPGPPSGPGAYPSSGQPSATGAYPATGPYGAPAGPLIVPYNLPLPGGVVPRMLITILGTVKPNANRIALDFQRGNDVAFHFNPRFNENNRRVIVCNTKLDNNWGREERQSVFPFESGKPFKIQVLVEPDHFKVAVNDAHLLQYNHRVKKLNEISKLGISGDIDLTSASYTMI
experimentNotes: ELISA, blocking of INSR binding to coated Gal3
Measured Gal3-INSR Blocking @ 3 µg/mL by item
Report the figure in % without appending any unit label.

Below are worked cases with known answers.
binder	unitSpec	Gal3-INSR Blocking @ 3 µg/mL
13G4.2F8 (antibody, V domains shown) VH: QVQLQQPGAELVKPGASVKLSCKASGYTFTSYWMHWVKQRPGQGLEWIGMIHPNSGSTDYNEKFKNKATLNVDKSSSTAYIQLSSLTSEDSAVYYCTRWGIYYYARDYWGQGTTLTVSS VL: DIVMTQSQKFMSTSVGERVSITCKASQNVGTNVAWYQQKAGQSLELLIYGASNRHTGVPDRFTGSGSGTDFTLTITNVQSEDMTNYFCEQYSNFPLTFGAGTKLELK	%	11
20D11.2C6 (antibody, V domains shown) VH: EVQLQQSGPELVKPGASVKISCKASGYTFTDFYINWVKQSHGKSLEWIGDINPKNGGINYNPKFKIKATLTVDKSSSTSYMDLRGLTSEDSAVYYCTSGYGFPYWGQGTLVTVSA VL: DIQMNQSPSSLSASLGDTITITCRASQNIYIWLSWYQQKPGNIPKLLIYKASNLHTGVPSRFSGSGSGTDFTLTISTLQPEDIATYFCLQGQSYPLTFGAGTKLEMK	%	100

Kindly consider the entry below.
response.value for 24D12.2H9 (antibody, V domains shown) VH: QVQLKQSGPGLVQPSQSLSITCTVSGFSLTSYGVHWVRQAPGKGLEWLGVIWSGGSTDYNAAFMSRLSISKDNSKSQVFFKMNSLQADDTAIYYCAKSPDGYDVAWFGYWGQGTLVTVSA VL: DIVMTQSHKFMSTSVGDRVSITCKASQDVRTAVAWYQQKPGQSPKLLIYWASTRHTGVPDRFTGSGSGTDFTLTLSNVQSEDLADYFCQQYSSYPWTFGGGTKLEIK (field: Gal3-INSR Blocking @ 3 µg/mL) = 22
